For each of the molecules below, state its IC50.
# target_or_test_system: human MAO-A (Homo sapiens)
# Construct: expressed in transfected cells; host or cells: EBNA cells (transient transfection); cell membranes used
# Sequence (P21397 whole entry): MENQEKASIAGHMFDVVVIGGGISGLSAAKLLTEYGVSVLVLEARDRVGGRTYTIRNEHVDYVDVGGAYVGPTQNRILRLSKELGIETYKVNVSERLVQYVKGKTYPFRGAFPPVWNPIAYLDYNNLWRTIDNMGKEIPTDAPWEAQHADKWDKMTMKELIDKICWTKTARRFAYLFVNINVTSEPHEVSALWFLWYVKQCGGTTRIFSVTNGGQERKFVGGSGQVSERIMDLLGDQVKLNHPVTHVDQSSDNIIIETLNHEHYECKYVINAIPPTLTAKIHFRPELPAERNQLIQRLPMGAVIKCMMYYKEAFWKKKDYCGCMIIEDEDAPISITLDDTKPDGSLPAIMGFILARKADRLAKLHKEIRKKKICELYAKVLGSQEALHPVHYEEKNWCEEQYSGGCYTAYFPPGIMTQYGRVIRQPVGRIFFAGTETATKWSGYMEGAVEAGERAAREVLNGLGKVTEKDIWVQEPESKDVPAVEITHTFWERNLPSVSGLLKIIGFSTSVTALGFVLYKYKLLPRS
# assay_comment: MAO-A enzymatic activity, spectrophotometric assay (tyramine, Amplex Red)
# Type: biochemical
# applied_conditions: membranes of EBNA cells transfected with human MAO-A cDNA; 30 min preincubation at 37° C., pH 7.4; substrate tyramine

Batch of 4 molecules: report IC50 for each.
1. NC(=O)C(=O)N1CCc2ccc(OCc3cccc(F)c3)cc2CC1 [Example 3]
2. NC(=O)N1CCc2ccc(OCc3cccc(F)c3)cc2CC1 [Example 8]
3. CC(=O)N1CCc2ccc(OCc3cccc(F)c3)cc2CC1 [Example 1]
4. CC(=O)N1C=Cc2ccc(OCc3cccc(F)c3)cc2CC1=O [Example 15]

Result ::
1. > 10 µM
2. > 10 µM
3. > 10 µM
4. > 9.5 µM
